# measured_on: Cyclin-dependent kinase 2/cyclin E1 (Homo sapiens)
# assay_overview: Inhibition of human CDK2-GST-tagged cyclin E using his-tagged Rb as substrate after 30 mins by scintillation counting method
pIC50: −log10 of the molar value.
parameter_measured: pIC50

(P) CN1CCN(c2ccc(Nc3nc(N)c(C(=O)c4ccc5c(c4)OCCO5)s3)cc2)CC1
(Q) COc1cccc(C(=O)c2sc(Nc3ccc(N4CCN(C(C)C)CC4)cc3)nc2N)c1
// pick larger pIC50 from pair: P vs Q Give the chosen item's label as your response.
P

---

# System: HCT-116
# assay_overview: Cell cycle arrest in Rb-competent human HCT116 cells assessed as reduction in S phase after 24 hrs using BrdUrd staining by FACS analysis
# Assay type: functional, cell-based
# assay_conditions: HCT-116, 24 h
parameter_measured: IC50 (µM)
Give just the number in µM; leave the unit off.

Quick check: IC50 of `CN1CCN(c2ccc(Nc3nc(N)c(C(=O)c4ccc5c(c4)OCCO5)s3)cc2)CC1` ?
3.9
